So I've got a bunch of molecules here, and I need their IC50 values.
biological target: p-Akt1 in LNCaP cells (Homo sapiens, UniProt P31749); construct: SureFire assays to detect cellular p-Akt1, p-Akt2 and p-Akt3 levels in WM115 cells (Akt2/3) and LNCaP cells (Akt1); endogenous in cells; host or cells: LNCaP (ECACC 89110211); assay: Phospho-Akt cellular SureFire assay, p-Akt1 in LNCaP cells; type: cell-based; conditions: read-out: Biological Assay 2 IC50 (nM) Akt1 LNCaP
Sequence (P31749 whole entry): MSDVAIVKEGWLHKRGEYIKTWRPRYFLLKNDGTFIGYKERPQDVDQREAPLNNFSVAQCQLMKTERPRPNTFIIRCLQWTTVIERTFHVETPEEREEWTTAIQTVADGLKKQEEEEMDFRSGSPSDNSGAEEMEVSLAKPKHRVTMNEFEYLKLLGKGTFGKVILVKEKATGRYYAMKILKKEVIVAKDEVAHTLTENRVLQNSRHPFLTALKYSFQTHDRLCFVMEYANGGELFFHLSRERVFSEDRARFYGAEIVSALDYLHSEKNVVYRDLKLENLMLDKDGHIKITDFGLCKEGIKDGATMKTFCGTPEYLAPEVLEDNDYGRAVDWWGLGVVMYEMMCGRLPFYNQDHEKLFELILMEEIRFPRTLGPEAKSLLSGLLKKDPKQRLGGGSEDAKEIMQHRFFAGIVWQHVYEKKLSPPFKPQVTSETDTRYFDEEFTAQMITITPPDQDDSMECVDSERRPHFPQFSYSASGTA

In plain terms, COC1(OC)CCC(CC(=O)Nc2cnc(-c3ccc(C4(N)COC4)cc3)c(-c3ccccc3)c2)CC1 has a documented IC50 of > 30000 nM

In plain terms, COC(=O)N[C@H]1CC[C@H](CC(=O)Nc2cc(-c3ccccc3)c(-c3ccc(C4(N)CC4)c(F)c3)cn2)CC1 has a documented IC50 of > 30000 nM

In plain terms, CN(C(=O)C1CC1)[C@H]1CC[C@H](CC(=O)Nc2cc(-c3ccccc3)c(-c3ccc([C@]4(N)C[C@](C)(O)C4)cc3)cn2)CC1 has a documented IC50 of 1400 nM

In plain terms, CC(C)(N)c1ccc(-c2ncc(NC(=O)C[C@H]3CC[C@H](NC(=O)C4CC4)CC3)cc2-c2ccsc2)cc1 has a documented IC50 of > 16000 nM

In plain terms, CC(=O)N(C)[C@H]1CC[C@H](CC(=O)Nc2cc(-c3ccccc3)c(-c3ccc([C@]4(N)C[C@](C)(O)C4)cc3)cn2)CC1 has a documented IC50 of 7900 nM

In plain terms, CCC(=O)N(C)[C@H]1CC[C@H](CC(=O)Nc2cc(-c3ccccc3)c(-c3ccc(C(C)(C)N)cc3)nn2)CC1 has a documented IC50 of > 30000 nM

In plain terms, CC(C)(N)c1ccc(-c2ncc(NC(=O)C[C@H]3CC[C@H](N4CCOCC4)CC3)cc2-c2ccccc2)cc1 has a documented IC50 of > 27000 nM

In plain terms, COC(=O)N(C)[C@H]1CC[C@H](C(F)C(=O)Nc2cnc(-c3ccc(C4(N)CCC4)cc3)c(-c3ccccc3)c2)CC1 (relative stereo) has a documented IC50 of > 10000 nM

In plain terms, COC(=O)N(C)[C@H]1CC[C@H](CC(=O)Nc2cc(-c3ccccc3F)c(-c3ccc(C4(N)CCC4)cc3)cn2)CC1 has a documented IC50 of > 30000 nM

In plain terms, COC(=O)N(C)[C@H]1CC[C@H](CC(=O)Nc2cnc(-c3ccc(C4(N)CCC4)cc3)c(-c3ccccc3)c2)CC1 has a documented IC50 of > 16000 nM

In plain terms, CN(C(=O)C1CC1)[C@H]1CC[C@H](CC(=O)Nc2cc(-c3ccccc3)c(-c3ccc(C4(N)CC4)cc3)nn2)CC1 has a documented IC50 of > 30000 nM

In plain terms, CC(=O)NC1CCC(CC(=O)Nc2cnc(-c3ccc([C@]4(N)C[C@](C)(O)C4)cc3)c(-c3ccccc3)c2)CC1 (some centres unmarked) has a documented IC50 of 8700 nM

In plain terms, COC(=O)N(C)[C@H]1CC[C@H](CC(=O)Nc2cnc(-c3ccc(C(C)(C)N)c(F)c3)c(-c3ccccc3)c2)CC1 has a documented IC50 of > 30000 nM

In plain terms, CCC(=O)N(C(C)C)[C@H]1CC[C@H](CC(=O)Nc2cc(-c3ccccc3)c(-c3ccc([C@]4(N)C[C@](C)(O)C4)cc3)cn2)CC1 has a documented IC50 of 7100 nM

In plain terms, COC(=O)N(C)[C@H]1CC[C@H](C(C)C(=O)Nc2cnc(-c3ccc(C4(N)CCC4)cc3)c(-c3ccccc3)c2)CC1 (relative stereo) has a documented IC50 of > 21000 nM

In plain terms, CN([C@H]1CC[C@H](CC(=O)Nc2cnc(-c3ccc(C(C)(C)N)cc3)c(-c3ccccc3F)c2)CC1)S(C)(=O)=O has a documented IC50 of > 30000 nM

In plain terms, NC1(c2ccc(-c3nnc(NC(=O)C[C@H]4CC[C@H](N5CCOC5=O)CC4)cc3-c3ccccc3)cc2)CCC1 has a documented IC50 of 9800 nM

Source listed as patent US10336702B2.
